Source: patent US9029546B2

pKi: −log10 of the molar value.
# PKC theta kinase (Homo sapiens, UniProt Q04759): pKi values follow
# Sequence (Q04759 whole entry): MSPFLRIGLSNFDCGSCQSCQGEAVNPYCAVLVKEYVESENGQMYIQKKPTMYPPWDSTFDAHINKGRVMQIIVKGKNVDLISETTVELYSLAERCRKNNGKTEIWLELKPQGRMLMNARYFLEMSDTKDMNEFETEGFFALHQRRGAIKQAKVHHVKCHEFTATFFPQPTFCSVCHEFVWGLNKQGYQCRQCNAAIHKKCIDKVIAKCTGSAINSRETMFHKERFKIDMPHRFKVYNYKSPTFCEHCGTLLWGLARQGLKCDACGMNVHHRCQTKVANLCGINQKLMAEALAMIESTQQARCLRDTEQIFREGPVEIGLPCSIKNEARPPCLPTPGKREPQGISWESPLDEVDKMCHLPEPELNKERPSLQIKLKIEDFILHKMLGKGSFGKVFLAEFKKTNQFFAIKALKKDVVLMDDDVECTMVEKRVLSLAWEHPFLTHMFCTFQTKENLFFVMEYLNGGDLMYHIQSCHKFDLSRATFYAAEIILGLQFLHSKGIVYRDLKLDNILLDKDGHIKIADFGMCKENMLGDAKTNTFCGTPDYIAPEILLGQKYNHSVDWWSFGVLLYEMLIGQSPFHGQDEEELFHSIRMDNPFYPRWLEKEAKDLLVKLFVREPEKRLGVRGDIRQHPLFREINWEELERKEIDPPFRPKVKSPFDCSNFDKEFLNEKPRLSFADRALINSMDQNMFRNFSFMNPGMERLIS

NC1CCC(Nc2ccc(C(F)(F)F)c(-c3n[nH]c4ncccc34)n2)CC1 (stereo not drawn) [Compound 35] :: < 6.15
CC(C)C[C@@H](CN)Nc1cccc(-c2n[nH]c3ncccc23)n1 [Compound 17] :: < 6.15
NCC1CCC(CNc2ccc(C(F)(F)F)c(-c3n[nH]c4ncccc34)n2)CC1 (stereo not drawn) [Compound 24] :: > 6.30
N#CCNc1ccc(C(F)(F)F)c(-c2n[nH]c3ncccc23)n1 [Compound 62] :: < 6.15
FC(F)(F)c1ccc(NCCN2CCCC2)nc1-c1n[nH]c2ncccc12 [Compound 60] :: < 6.15
CNCCN(C)c1cccc(-c2n[nH]c3ncccc23)n1 [Compound 5] :: > 5.55
OC[C@H](Nc1ccc(C(F)(F)F)c(-c2n[nH]c3ncccc23)n1)c1ccccc1 [Compound 79] :: > 6.30
CC(C)CC(O)CNc1cccc(-c2n[nH]c3ncccc23)n1 (stereo not drawn) [Compound 21] :: < 6.15

**Query** Returns the measured pKi for the input compound. Input: NC1CCC(CNc2ccc(C(F)(F)F)c(-c3n[nH]c4ncccc34)n2)CC1 (stereo not drawn) [Compound 25]
**Result** > 6.30

====

# TARGET: PKC Delta (Homo sapiens)
# ASSAY METHOD TEXT: PKC delta coupled-enzyme kinase assay (NADH consumption)
# Assay type: biochemical
# MEASUREMENT PARAMETERS: 240 μM ATP, 30° C.
pKi: −log10 of the molar value.
Entries and their pKi values follow.

NC1CCCC(Nc2ccc(C(F)(F)F)c(-c3n[nH]c4ncccc34)n2)C1 (centres unmarked) [Compound 30] :: > 6.30
CCN1CCC(Oc2ccc(C(F)(F)F)c(-c3n[nH]c4ncccc34)n2)C1 (centres unmarked) [Compound 56] :: < 6.15
NC1CCCC(Nc2cccc(-c3n[nH]c4ncccc34)n2)C1 (centres unmarked) [Compound 61] :: > 7.30
FC(F)(F)c1ccc(NCC2CCCNC2)nc1-c1n[nH]c2ncccc12 (centres unmarked) [Compound 31] :: < 6.15

Next, consider the following molecule.
**Query** Give its pKi value. Item: NC1CCC(Oc2ccc(C(F)(F)F)c(-c3n[nH]c4ncccc34)n2)CC1 (centres unmarked) [Compound 59]
**Result** < 6.15

====

# TARGET: PKC Delta (Homo sapiens, UniProt Q05655)
# Sequence (Q05655 whole entry): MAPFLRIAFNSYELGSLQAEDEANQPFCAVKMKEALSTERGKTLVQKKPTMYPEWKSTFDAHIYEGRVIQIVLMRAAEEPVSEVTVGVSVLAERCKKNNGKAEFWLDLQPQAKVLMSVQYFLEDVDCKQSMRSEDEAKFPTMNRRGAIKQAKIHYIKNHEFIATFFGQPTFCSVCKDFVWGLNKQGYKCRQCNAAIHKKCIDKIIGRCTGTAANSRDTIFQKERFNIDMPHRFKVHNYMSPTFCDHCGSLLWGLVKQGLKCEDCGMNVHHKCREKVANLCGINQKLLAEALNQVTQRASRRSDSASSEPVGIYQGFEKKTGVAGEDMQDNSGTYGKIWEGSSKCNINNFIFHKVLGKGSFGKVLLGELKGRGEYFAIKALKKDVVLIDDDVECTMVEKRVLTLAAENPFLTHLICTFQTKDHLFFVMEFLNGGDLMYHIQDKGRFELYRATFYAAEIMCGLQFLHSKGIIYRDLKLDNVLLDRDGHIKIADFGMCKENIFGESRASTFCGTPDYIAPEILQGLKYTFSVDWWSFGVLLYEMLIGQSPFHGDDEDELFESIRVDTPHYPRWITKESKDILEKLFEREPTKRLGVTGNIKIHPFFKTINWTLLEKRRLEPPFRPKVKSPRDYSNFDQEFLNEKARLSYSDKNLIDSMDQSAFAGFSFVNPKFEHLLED
# ASSAY METHOD TEXT: PKC delta coupled-enzyme kinase assay (NADH consumption)
# MEASUREMENT PARAMETERS: 240 μM ATP, 30° C.
pKi: −log10 of the molar value.
Listed here are molecules together with their documented pKi.

Field: example entries. Status: answers known.
FC(F)(F)c1ccc(OCCC2CCCCN2)nc1-c1n[nH]c2ncccc12 (centres unmarked) :: < 6.15
NCCCNc1cccc(-c2n[nH]c3ncccc23)n1 :: > 6.30
OCCNc1cccc(-c2n[nH]c3ncccc23)n1 :: < 6.15
N#CCNc1ccc(C(F)(F)F)c(-c2n[nH]c3ncccc23)n1 :: < 6.15

API: the following record is the query input.
**Query** Tell me reported pKi for NCC1CCC(CNc2cccc(-c3n[nH]c4ncccc34)n2)CC1 (centres unmarked) , tested with PKC Delta (Homo sapiens, UniProt Q05655).
**Result** > 6.30
